tested on: SK-MEL-2; experiment: NCI tumour cell line growth inhibition, 48 h
Calls of active or inactive are those of the source. Rule as the data show it: active = GI50 up to about 1.1 µM and inactive = higher.
measured_property: GI50

{"columns": ["molecule", "target_system", "measured_property", "measured_value"],
 "data": [
  ["N#Cc1ccc(C2ON=C(c3ccccc3)N2C23CC4CC(CC(C4)C2)C3)cc1 (stereo not drawn)", "SK-MEL-2", "GI50", "> 10 µM (inactive)"],
  ["CC(=O)Nc1cc2cc(N)ccc2oc1=O", "SK-MEL-2", "GI50", "> 100 µM (inactive)"],
  ["CCOC(=O)NC(=O)c1c[nH]c(=O)[nH]c1=O", "SK-MEL-2", "GI50", "> 100 µM (inactive)"]
]}

###

For reference, GI50 measured on HCT-15:

{"columns": ["molecule", "target_system", "u", "reading_qualifier", "GI50"],
 "data": [
  ["COC(=O)c1ccccc1CC1Cc2ccc3c(c2C1=O)CCCC3 (configuration not stated)", "HCT-15", "µM", "=", 25.4],
  ["c1ccc2sc(SCN(C3CCCCC3)C3CCCCC3)nc2c1", "HCT-15", "µM", ">", 100],
  ["N#C[C@](CO)(NC(=O)OCc1ccccc1)C(F)F", "HCT-15", "µM", ">", 100],
  ["CCN(CC)CCN(C)CC(C)(C)C(=O)/C=C/c1ccccc1", "HCT-15", "µM", "=", 12.5],
  ["COc1cccc(N2C(=O)c3c(c4[nH]c5ccccc5c4c4ccc(C(C)(C)C)cc34)C2=O)c1", "HCT-15", "µM", ">", 100],
  ["O=C(Oc1ccc(Cl)cc1[N+](=O)[O-])c1ccccc1", "HCT-15", "µM", ">", 100],
  ["Cc1ccc(CC(Cc2ccc(C)cc2C(=O)O)C(=O)O)cc1 (configuration not stated)", "HCT-15", "µM", ">", 100],
  ["C[C@]12CCC3C4=C(CCC3C1CCC2=O)C(=O)[C@H]1O[C@H]1C4=O (some centres not stated)", "HCT-15", "µM", "=", 1.36],
  ["CCCC1NC(C#N)(C#N)C(CCC)NC1(C#N)C#N (configuration not stated)", "HCT-15", "µM", "=", 0.105],
  ["CC(C)NC(=O)OCc1c(COC(=O)NC(C)C)c(-c2ccc[n+](COC(=O)CC(C)(C)C)c2)n2c1CCC2", "HCT-15", "µM", ">", 100],
  ["COc1ccc(C(C)Nc2cc(OC)c(OC)c(OC)c2)cc1 (configuration not stated)", "HCT-15", "µM", "=", 3],
  ["CCc1cn(C2CC(CO)C(CO)S2)c(=O)[nH]c1=O (configuration not stated)", "HCT-15", "µM", ">", 100],
  ["CC(C)(C)OC(=O)NC(Cc1ccc(O)cn1)C(=O)O (configuration not stated)", "HCT-15", "µM", ">", 100],
  ["CCOc1ccc2nc(NC(=O)c3c/c(=N\\NC(=O)C[N+](C)(C)C)c4ccc(O)cc4o3)sc2c1", "HCT-15", "µM", "=", 5.93],
  ["OCC(O)C(OC1OC(CO)C(O)C(O)C1O)c1nn(-c2ccccc2)c2nc3cc(Cl)c(Cl)cc3cc12 (configuration not stated)", "HCT-15", "µM", ">", 100],
  ["Cn1cc(NC(=O)Nc2cc(C(=O)Nc3cc(C(=O)Nc4cc(S(=O)(=O)O)c5cc(S(=O)(=O)O)cc(S(=O)(=O)O)c5c4)n(C)c3)n(C)c2)cc1C(=O)Nc1cc(C(=O)Nc2cc(S(=O)(=O)O)c3cc(S(=O)(=O)O)cc(S(=O)(=O)O)c3c2)n(C)c1", "HCT-15", "µM", ">", 100],
  ["O=C(/C=C/c1ccccc1)CCN1CCN(CCC(=O)/C=C/c2ccccc2)CC1", "HCT-15", "µM", "=", 10.9],
  ["COc1ccc2c(c1)CC1c3c(ccc(OC)c3O)CC2N1C (configuration not stated)", "HCT-15", "µM", "=", 34.4],
  ["CC(C)=CC1C(C(=O)O)C1(C)C (configuration not stated)", "HCT-15", "µM", ">", 750],
  ["O=[N+]([O-])c1ccc(NC2OCC(O)C(O)C2O)cc1 (configuration not stated)", "HCT-15", "µM", ">", 100],
  ["O=C(NC(CS)C(=O)O)c1c2ccccc2nc2ccccc12 (configuration not stated)", "HCT-15", "µM", "=", 12.8],
  ["CC(=O)N1CC(=O)NC1=S", "HCT-15", "µM", ">", 100]
]}
